Measured target: T1, IIB-Fc:ALK7-Fc heterodimer (human ActRIIB ECD-Fc paired with human ALK7 ECD-Fc) (human, UniProt Q13705-1 19-134; Q8NER5-1 25-113)
T1 construct: activin receptor type IIB (ActRIIB) extracellular domain, human, aa 19-134 of NP_001097.2; activin receptor-like kinase 7 (ALK7) extracellular domain, human, aa 25-113 of NP_660302.2; copies: 1 + 1
T1 sequence (Q13705 19-134, chain 1 of 2): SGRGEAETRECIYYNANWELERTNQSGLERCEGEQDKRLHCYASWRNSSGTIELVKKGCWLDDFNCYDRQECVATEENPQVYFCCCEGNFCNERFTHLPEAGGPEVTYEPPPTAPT
T1 sequence (Q8NER5 25-113, chain 2 of 2): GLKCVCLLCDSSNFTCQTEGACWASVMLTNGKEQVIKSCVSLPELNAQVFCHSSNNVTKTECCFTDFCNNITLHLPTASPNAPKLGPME
Test summary: SPR; same experiment as a1 (Biacore 8K, 37 °C, receptor dimers captured by anti-human Fc, HBS-EP+ with 350 mM NaCl added and 0.5 mg/mL BSA) but fitted with a bivalent analyte model (bold cells of Table 1); the first binding step is the one considered
Assay context: both partners purified
Parameter: koff

BMP7 (ligand, human, UniProt P18075 293-431, looked up, source: bought: R&D Systems) STGSKQRSQNRSKTPKNQEALRMANVAENSSSDQRQACKKHELYVSFRDLGWQDWIIAPEGYAAYYCEGECAFPLNSYMNATNHAIVQTLVHFINPETVPKPCCAPTQLNAISVLYFDDSSNVILKKYRNMVVRACGCH :: > 0.01 s⁻¹
activin A (ligand, human, UniProt P08476 311-426, looked up, source: generated in house) GLECDGKVNICCKKQFFVSFKDIGWNDWIIAPSGYHANYCEGECPSHIAGTSGSSLSFHSTVINHYRMRGHSPFANLKSCCVPTKLRPMSMLYYDDGQNIIKKDIQNMIVEECGCS :: 0.00815 s⁻¹
GDF3 (ligand, human, UniProt Q9NR23 251-364, looked up, source: bought: R&D Systems) AAIPVPKLSCKNLCHRHQLFINFRDLGWHKWIIAPKGFMANYCHGECPFSLTISLNSSNYAFMQALMHAVDPEIPQAVCIPTKLSPISMLYQDNNDNVILRHYEDMVVDECGCG :: > 0.01 s⁻¹

For the binder BMP9 (ligand, human, UniProt Q9UK05 320-429, looked up, source: generated in house) SAGAGSHCQKTSLRVNFEDIGWDSWIIAPKEYEAYECKGGCFFPLADDVTPTKHAIVQTLVHLKFPTKVGKACCVPTKLSPISVLYKDDMGVPTLKYHYEGMSVAECGCR , report koff.
> 0.01 s⁻¹
